meta.source: patent US7119073B2

Each record here notes measured pIC50.
TARGET OF ASSAY: full length NS3 protein noncovalently complexed with the full-length NS4A cofactor protein (NS3/NS4A complex) (Hepatitis C virus genotype 1b, UniProt P26663)
Construct: full length NS3 protein spanning residues 1027–1657 of the HCV polyprotein
Sequence (P26663 1027-1657): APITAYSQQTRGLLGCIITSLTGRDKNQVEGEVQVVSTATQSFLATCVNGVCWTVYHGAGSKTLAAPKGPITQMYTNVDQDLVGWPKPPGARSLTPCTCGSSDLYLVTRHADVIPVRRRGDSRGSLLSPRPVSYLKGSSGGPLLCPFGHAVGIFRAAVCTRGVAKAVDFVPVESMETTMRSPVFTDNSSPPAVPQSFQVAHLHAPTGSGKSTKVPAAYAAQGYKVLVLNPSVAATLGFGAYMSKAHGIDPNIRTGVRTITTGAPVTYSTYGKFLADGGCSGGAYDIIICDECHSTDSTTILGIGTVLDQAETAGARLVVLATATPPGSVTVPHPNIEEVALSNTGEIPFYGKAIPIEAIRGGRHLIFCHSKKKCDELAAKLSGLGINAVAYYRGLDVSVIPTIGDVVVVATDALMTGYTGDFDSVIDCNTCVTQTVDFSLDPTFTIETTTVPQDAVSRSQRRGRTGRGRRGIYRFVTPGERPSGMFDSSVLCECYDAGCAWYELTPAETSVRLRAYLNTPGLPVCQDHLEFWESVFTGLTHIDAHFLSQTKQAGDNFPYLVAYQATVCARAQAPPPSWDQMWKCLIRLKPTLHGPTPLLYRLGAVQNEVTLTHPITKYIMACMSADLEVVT
Sequence (P26663 1658-1711): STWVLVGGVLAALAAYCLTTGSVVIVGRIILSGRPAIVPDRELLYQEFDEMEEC
PROTOCOL SUMMARY: Full-length NS3-NS4A heterodimer protein assay (Assay A)
Format: biochemical, hepatitis C virus (HCV)
ASSAY CONTEXT: full-length NS3-NS4A heterodimer protein assay; read-out: Assay A (IC50 class)
pIC50: −log10 of the molar value.

COMPOUND	pIC50
CC(C)C[C@H](NC(=O)C1(Cc2ccsc2C(=O)O)Cc2ccccc2N1)C(=O)N[C@@H](CC(F)F)C(=O)NCCc1cc2ccccc2[nH]1 (single isomer, unassigned) [Compound 707b]	> 4.00

We next turn to a different compound, shown below.
Please give the measured pIC50 for this compound: CC(C)C[C@H](NC(=O)C1(Cc2ccsc2C(=O)O)Cc2ccccc2N1)C(=O)N[C@@H](CC(F)F)C(=O)NCCc1cc2ccccc2[nH]1 (single isomer, unassigned) [Compound 707a]
> 4.00

---

TARGET OF ASSAY: NS3 protease domain complexed to a modified form of the NS4A peptide (Pep4AK) (Hepatitis C virus genotype 1b)
Construct: NS3 protease domain (residues 1027–1206 of the HCV polyprotein)
Sequence (P26663 1027-1206, other chains not shown): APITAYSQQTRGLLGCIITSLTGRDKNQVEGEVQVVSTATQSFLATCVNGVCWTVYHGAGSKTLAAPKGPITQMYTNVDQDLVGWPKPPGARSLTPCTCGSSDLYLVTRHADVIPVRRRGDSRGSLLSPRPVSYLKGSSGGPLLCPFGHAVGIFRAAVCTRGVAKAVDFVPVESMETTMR
PROTOCOL SUMMARY: HCV NS3 protease domain/NS4A cofactor peptide assay (Assay B)
Type: biochemical
ASSAY CONTEXT: Table 1; NS3 protease domain/Pep4AK, 4AB peptide substrate; read-out: Assay B
PARAMETER: IC50

Please give the measured IC50 for this compound: CC(C)COC(=O)NC(CCC(=O)O)C(=O)NC(CC(C)C)C(=O)NC(CS)C(=O)NCCc1cccc(C(=O)O)c1 (stereo not shown)
< 10 µM

Please give the measured IC50 for this compound: COc1ccc(OC)c(CCNC(=O)C(CS)NC(=O)C(CC(C)C)NC(=O)C(CCC(=O)O)NC(=O)OCC(C)C)c1 (stereo not shown)
< 100 µM

Please give the measured IC50 for this compound: CCOc1ccc(CCNC(=O)C(CS)NC(=O)C(CC(C)C)NC(=O)C(CCC(=O)O)NC(=O)OCC(C)C)cc1 (stereo not shown)
< 100 µM

Please give the measured IC50 for this compound: CC(C)COC(=O)NC(CCC(=O)O)C(=O)NC(CC(C)C)C(=O)NC(CS)C(=O)NCCc1cccc(-c2ccccc2)c1 (stereo not shown)
< 100 µM

Please give the measured IC50 for this compound: Cc1cccc(CCNC(=O)C(CS)NC(=O)C(CC(C)C)NC(=O)C(CCC(=O)O)NC(=O)OCC(C)C)c1 (stereo not shown)
< 100 µM

Please give the measured IC50 for this compound: CC(C)COC(=O)NC(CCC(=O)O)C(=O)NC(CC(C)C)C(=O)NC(CS)C(=O)NCCc1ccccc1F (stereo not shown)
< 100 µM

Please give the measured IC50 for this compound: CC(C)COC(=O)NC(CCC(=O)O)C(=O)NC(CC(C)C)C(=O)NC(CS)C(=O)NCCc1ccc(C(=O)O)cc1 (stereo not shown)
< 10 µM

---

Each record here notes measured IC50.
TARGET OF ASSAY: NS3 protease domain complexed to a modified form of the NS4A peptide (Pep4AK) (Hepatitis C virus genotype 1b)
Construct: NS3 protease domain (residues 1027–1206 of the HCV polyprotein)
PROTOCOL SUMMARY: HCV NS3 protease domain/NS4A cofactor peptide assay (Assay B)
Type: biochemical
ASSAY CONTEXT: Table 1; NS3 protease domain/Pep4AK, 4AB peptide substrate; read-out: Assay B

Example results:
COMPOUND	MEASURED VALUE
CC(C)COC(=O)NC(CCC(=O)O)C(=O)NC(CC(C)C)C(=O)NC(CC(F)F)C(=O)NCCc1c(F)cc(C(=O)O)cc1F (stereo not shown) [Compound 187]	< 1 µM
CC(C)COC(=O)NC(CCC(=O)O)C(=O)NC(CC(C)C)C(=O)NC(CS)C(=O)NCCc1cccc(O)c1 (stereo not shown) [Compound 129]	< 100 µM
CC(C)COC(=O)NC(CCC(=O)O)C(=O)NC(CC(C)C)C(=O)NC(CS)C(=O)NCCc1ccc(S(=O)(=O)NC(=O)C(C)C)cc1 (stereo not shown) [Compound 161]	< 10 µM

Please give the measured IC50 for this compound: CC(C)COC(=O)NC(CCC(=O)O)C(=O)NC(CC(C)C)C(=O)NC(CS)C(=O)NCCc1cccnc1 (stereo not shown) [Compound 193]
< 100 µM
